meta.source: patent US5858992A

# metabolised per record follows
experimental.system: Pancreatic juice amylase (Homo sapiens)
Sequence (P04746 16-511): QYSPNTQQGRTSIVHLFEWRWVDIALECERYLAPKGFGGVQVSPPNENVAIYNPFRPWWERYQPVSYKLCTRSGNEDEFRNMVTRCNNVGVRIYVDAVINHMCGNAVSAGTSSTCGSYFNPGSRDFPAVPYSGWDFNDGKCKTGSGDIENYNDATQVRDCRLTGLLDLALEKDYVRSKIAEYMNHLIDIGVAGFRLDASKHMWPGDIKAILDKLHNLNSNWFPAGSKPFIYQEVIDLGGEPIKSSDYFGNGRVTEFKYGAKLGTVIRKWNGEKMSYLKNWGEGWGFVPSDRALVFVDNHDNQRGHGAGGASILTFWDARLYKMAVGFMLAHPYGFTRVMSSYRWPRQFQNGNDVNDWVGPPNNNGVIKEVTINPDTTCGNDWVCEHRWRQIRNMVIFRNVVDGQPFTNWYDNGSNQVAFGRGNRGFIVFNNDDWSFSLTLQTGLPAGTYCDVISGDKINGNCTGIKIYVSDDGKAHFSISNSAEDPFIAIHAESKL
experiment.summary: in vitro
Write the answer as a number in %, unit excluded.

Give a short answer stating reported metabolised for OC[C@H]1O[C@H](O[C@H]2O[C@H](CO)[C@@H](O)[C@H](O)[C@H]2O)[C@H](O)[C@@H](O)[C@@H]1O [Trehalose, α,α-trehalose, reference compound] .
0

New cases:
Input OC[C@H]1O[C@H](OC[C@H]2O[C@H](OC[C@H]3O[C@H](O[C@H]4O[C@H](CO)[C@@H](O)[C@H](O)[C@H]4O)[C@H](O)[C@@H](O)[C@@H]3O)[C@H](O)[C@@H](O)[C@@H]2O)[C@H](O)[C@@H](O)[C@@H]1O [α-Isomaltotriosyl α-glucoside] , output reported metabolised.
0.5

Could you please provide reported metabolised for OC[C@H]1O[C@H](OC[C@H]2O[C@H](O[C@H]3O[C@H](CO[C@H]4O[C@H](CO)[C@@H](O)[C@H](O)[C@H]4O)[C@@H](O)[C@H](O)[C@H]3O)[C@H](O)[C@@H](O)[C@@H]2O)[C@H](O)[C@@H](O)[C@@H]1O [α-Isomaltosyl α-isomaltoside] ? Thanks!
0.3

Annotate the compound OC[C@H]1O[C@H](O[C@H]2[C@H](O)[C@@H](O)C(O)O[C@@H]2CO)[C@H](O)[C@@H](O)[C@@H]1O (mixture of isomers) [Maltose, reference compound] with its measured metabolised.
0.2

State, in one line, measured metabolised of OC[C@H]1O[C@H](OC[C@H]2OC(O)[C@H](O)[C@@H](O)[C@@H]2O)[C@H](O)[C@@H](O)[C@@H]1O (stereo partly drawn) [Isomaltose, reference compound]
0.2

Respond only with metabolised recorded for "OC[C@H]1O[C@H](OC[C@H]2O[C@H](O[C@H]3O[C@H](CO)[C@@H](O)[C@H](O)[C@H]3O)[C@H](O)[C@@H](O)[C@@H]2O)[C@H](O)[C@@H](O)[C@@H]1O"
0.5
